This collection of values is drawn from paper PMC6770581.

- Test system: MOLT-4 cells
- Assay Remarks: MTT cytotoxicity assay, MOLT-4
- Assay type: cell-based
- Measurement Setup: Homo sapiens, 48 h, mean ± SD
Measurement Label: pIC50
Numbers only, as −log10 of the molar value.

Guide cases for pIC50, answers given:
[[record]]
compound = "CCC12C(=O)C(CC)(C(c3ccccc3)=C1c1ccccc1)C1C(=O)N(CCN(C)C)C(=O)C12 (stereo not shown)"
measurement_label = "pIC50"
observed = 4.70

[[record]]
compound = "CN(C)CCN1C(=O)C2C(C1=O)C1(c3ccccc3)CC2(c2ccccc2)C(c2ccccc2)=C1c1ccccc1 (stereo not shown)"
measurement_label = "pIC50"
observed = 5.40

[[record]]
compound = "CC12C(=O)C(C)(C(c3ccccc3)=C1c1ccccc1)C1C(=O)N(C3CCC(=O)NC3=O)C(=O)C12 (stereo not shown)"
measurement_label = "pIC50"
observed = 3.82


Pending compound:
Form field: reported pIC50 of CCC12C(=O)C(CC)(C(c3ccccc3)=C1c1ccccc1)C1C(=O)N(CC(O)CNC(C)C)C(=O)C12 (stereo not shown)
4.70

----------
Hi there, I'd appreciate the recorded pIC50 for every entry that follows.
- Tested on: CFPAC cells
- Assay Remarks: MTT cytotoxicity assay, CFPAC
- Type: cell-based
- Measurement Setup: Homo sapiens, 48 h, mean ± SD
pIC50: −log10 of the molar value.

Guide cases for pIC50, answers given:
[[record]]
compound = "CCN(CC)CCN1C(=O)C2C(C1=O)C1(CC)C(=O)C2(CC)C(c2ccccc2)=C1c1ccccc1 (stereo not drawn)"
observed = "< 3.00"

[[record]]
compound = "CCC12C(=O)C(CC)(C(c3ccccc3)=C1c1ccccc1)C1C(=O)N(CCN(C)C)C(=O)C12 (stereo not drawn)"
observed = "< 3.00"

[[record]]
compound = "CCC12C(=O)C(CC)(C(c3ccccc3)=C1c1ccccc1)C1C(=O)N(CCN3CCCCC3)C(=O)C12 (stereo not drawn)"
observed = "< 3.00"

[[record]]
compound = "CCC12C(=O)C(CC)(C(c3ccccc3)=C1c1ccccc1)C1C(=O)N(CCCN(C)C)C(=O)C12 (stereo not drawn)"
observed = "< 3.00"

[[record]]
compound = "CN(C)CCN1C(=O)C2C(C1=O)C1(c3ccccc3)CC2(c2ccccc2)C(c2ccccc2)=C1c1ccccc1 (stereo not drawn)"
observed = 4.40


Pending compound:
Form field: reported pIC50 of CCC12C(=O)C(CC)(C(c3ccccc3)=C1c1ccccc1)C1C(=O)N(CC(O)CNC(C)C)C(=O)C12 (stereo not drawn)
< 3.00
